# TARGET_OR_SYSTEM: protein farnesyltransferase (Rattus norvegicus, UniProt Q02293+Q04631)
# Construct: The enzyme is purified according to Reiss, Y., et al., Cell, 62: 81-88 (1990), utilizing steps one through three; from tissue; host or cells: rat brain
# Sequence (Q02293 whole entry, one chain of several): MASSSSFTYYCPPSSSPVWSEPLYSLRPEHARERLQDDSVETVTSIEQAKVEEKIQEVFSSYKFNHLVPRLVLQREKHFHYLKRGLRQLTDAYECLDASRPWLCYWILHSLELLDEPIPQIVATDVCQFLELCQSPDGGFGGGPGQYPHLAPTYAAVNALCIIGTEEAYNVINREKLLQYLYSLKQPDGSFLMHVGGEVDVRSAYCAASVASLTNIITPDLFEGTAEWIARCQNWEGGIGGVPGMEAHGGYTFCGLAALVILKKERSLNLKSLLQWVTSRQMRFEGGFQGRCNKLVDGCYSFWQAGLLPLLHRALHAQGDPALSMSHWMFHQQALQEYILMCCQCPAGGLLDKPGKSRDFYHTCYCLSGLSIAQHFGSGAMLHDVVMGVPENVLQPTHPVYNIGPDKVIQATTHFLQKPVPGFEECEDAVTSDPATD
# ASSAY: Inhibition of farnesyltransferase (scintillation proximity assay, rat brain enzyme, biotin-K Ras B fragment substrate)
# Assay type: biochemical
# EXPERIMENTAL_SETUP: read-out: % inhibition of farnesyltransferase at 1 × 10^-6 M; 1 × 10^-6 M (Table 2)
# Method: The ability of the compounds of the invention to inhibit protein farnesyltransferase or protein geranylgeranyltransferase can be measured according to the method of Moores, et al., J. Biol. Chem. 266: 14603 (1991) or the method of Vogt, et al., J. Biol. Chem. 270:660-664 (1995). […] In addition, in vitro inhibition of protein farnesyltransferase may be measured by the following procedure. […] The % inhibition of protein farnesyltransferase was determined for representative compounds of the invention.
Structures can show the parent of a compound that is named as a salt.
Note to self: values exactly at 40% are 1 (yes). So inhibition at 1 µM at or above 40% is 1 (yes), below is 0 (no).

Q: Test whether the compound CSCC[C@H](NC(=O)c1ccc(CCc2ccc3ccccc3c2)cc1-c1ccccc1C)C(=O)O [Example 468, lithium salt] records inhibition at 1 µM of 40% or higher.
Result: 1 (yes)

Q: Hi, just wondering whether Cc1ccccc1-c1cc(CCc2cccc(Oc3ccccc3)c2)ccc1C(=O)N[C@@H](CC[S+](C)[O-])C(=O)O (stereo partly shown) [Example 460, lithium salt] shows inhibition at 1 µM of 40% or higher.
Result: 1 (yes)

Q: Decide: inhibition at 1 µM of CSCC[C@H](NC(=O)c1ccc(CN2CCN(C)CC2)cc1-c1ccccc1)C(=O)O [Example 289] >= 40%?
Result: 0 (no)

Q: Identify whether the reported inhibition at 1 µM of the following compound is 40% or greater: CSCC[C@H](NC(=O)c1ccc(CN2CCN(c3ccccc3)CC2)cc1-c1ccccc1C)C(=O)O [Example 867]
Result: 1 (yes)

Q: Is inhibition at 1 µM for COc1ccc(CCNS(=O)(=O)c2ccc(C(=O)N[C@@H](CCSC)C(=O)O)c(-c3ccccc3C)c2)cc1OC [Example 776] at or above 40%?
Result: 0 (no)

Q: Record Cc1ccccc1-c1cc(CNC(C)(C)Cc2ccccc2)ccc1C(=O)N[C@@H](CCS(C)(=O)=O)C(=O)O [Example 311] ; criterion: inhibition at 1 µM no lower than 40%. Met?
Result: 1 (yes)

Q: Please check the record CSCC[C@H](NC(=O)c1ccc(CN(C(C)C)C2(CC3CCCCC3)CCC2)cc1-c1ccccc1C)C(=O)O [Example 332] and state if its inhibition at 1 µM is at or above 40%.
Result: 0 (no)

###

Reported inhibition at 1 µM values for a set of compounds
# TARGET_OR_SYSTEM: protein farnesyltransferase (Rattus norvegicus, UniProt Q02293+Q04631)
# Construct: The enzyme is purified according to Reiss, Y., et al., Cell, 62: 81-88 (1990), utilizing steps one through three; from tissue; host or cells: rat brain
# ASSAY: Inhibition of farnesyltransferase (scintillation proximity assay, rat brain enzyme, biotin-K Ras B fragment substrate)
# Assay type: biochemical
# EXPERIMENTAL_SETUP: read-out: % inhibition of farnesyltransferase at 1 × 10^-6 M; 1 × 10^-6 M (Table 2)
Where a name gives a salt, the structure may show the parent alone.
# output: bare number, implied unit %

Known inhibition at 1 µM results, listed for orientation:
compound="CSCC[C@H](NC(=O)c1ccc(CN(C)C(CC2CCCCC2)C(=O)N2CCOCC2)cc1-c1ccccc1C)C(=O)O (stereo partly shown)" observation_type="inhibition at 1 µM" display_unit=% value_reported=31
compound=CSCC[C@H](NC(=O)c1ccc(CN(C(C)C)C2(CC3CCCCC3)CCCC2)cc1-c1ccccc1C)C(=O)O observation_type="inhibition at 1 µM" display_unit=% value_reported=95
compound=Cc1ccccc1-c1cc(CN(C(C)C)C(C)(C)CC2CCCCC2)ccc1C(=O)N[C@@H](CCS(C)(=O)=O)C(=O)O observation_type="inhibition at 1 µM" display_unit=% value_reported=98
compound="CSCC[C@H](NC(=O)c1ccc(S(=O)(=O)NCCC2CCCCC2)cc1-c1ccccc1C)C(=O)O [Example 772, lithium salt]" observation_type="inhibition at 1 µM" display_unit=% value_reported=79
compound="CSCC[C@H](NC(=O)c1ccc(-c2ccccc2-c2ccccc2)cc1-c1ccccc1C)C(=O)O [Example 786, lithium salt]" observation_type="inhibition at 1 µM" display_unit=% value_reported=34
compound="CSCC[C@H](NC(=O)c1ccc(/C=C/c2cccc3ccccc23)cc1-c1ccccc1C)C(=O)O [Example 466, lithium salt]" observation_type="inhibition at 1 µM" display_unit=% value_reported=93

Q: Which inhibition at 1 µM is reported for this compound? CSCC[C@H](NC(=O)c1ccc(C=Cc2ccccc2Cc2ccccc2)cc1-c1ccccc1C)C(=O)O [Example 457, lithium salt]
Result: 92

###

# TARGET_OR_SYSTEM: protein farnesyltransferase (Rattus norvegicus, UniProt Q02293+Q04631)
# Construct: The enzyme is purified according to Reiss, Y., et al., Cell, 62: 81-88 (1990), utilizing steps one through three; from tissue; host or cells: rat brain
# ASSAY: Inhibition of farnesyltransferase (scintillation proximity assay, rat brain enzyme, biotin-K Ras B fragment substrate)
# Assay type: biochemical
# EXPERIMENTAL_SETUP: read-out: % inhibition of farnesyltransferase at 1 × 10^-6 M; 1 × 10^-6 M (Table 2)
Where a name gives a salt, the structure may show the parent alone.
Let's look at some compounds and their measured inhibition at 1 µM.
Dear colleague, please return just the value in %, with no unit written.

Q: # lookup: inhibition at 1 µM of CSCC[C@H](NC(=O)c1ccc(S(=O)(=O)NC2CCN(Cc3ccccc3)CC2)cc1-c1ccccc1C)C(=O)O [Example 773, lithium salt]
Result: 41

Q: What value of inhibition at 1 µM has been recorded for this entry: CSCC[C@H](NC(=O)c1ccc(CN2CCN(C(=O)OC(C)(C)C)CC2)cc1-c1ccccc1C)C(=O)O
Result: 62

Q: So what's the measured inhibition at 1 µM for this one? CSCC[C@H](NC(=O)c1ccc(CCCCC2CCCCC2)cc1-c1ccccc1C)C(=O)O [Example 478, sodium salt]
Result: 98

Q: Fill in: inhibition at 1 µM of Cc1ccccc1-c1cc(CN(C(C)C)C2(Cc3ccccc3)CC2)ccc1C(=O)N[C@@H](CCS(C)(=O)=O)C(=O)O is ___
Result: 97

Q: Would you kindly share the measured inhibition at 1 µM for CCCCN(C)N(CCC1CCCCC1)Cc1ccc(C(=O)N[C@@H](CCS(C)(=O)=O)C(=O)O)c(-c2ccccc2C)c1 ?
Result: 22

Q: // returns reported inhibition at 1 µM for input CSCC[C@H](NC(=O)c1ccc(-c2ccc(-c3ccccc3)cc2)cc1-c1ccccc1C)C(=O)O [Example 788, lithium salt]
Result: 44

Q: Could you tell me which inhibition at 1 µM is on file for CSCC[C@H](NC(=O)c1ccc(/C=C/CCc2ccccc2)cc1-c1ccccc1C)C(=O)O ?
Result: 97

###

# TARGET_OR_SYSTEM: protein farnesyltransferase (Rattus norvegicus, UniProt Q02293+Q04631)
# Construct: The enzyme is purified according to Reiss, Y., et al., Cell, 62: 81-88 (1990), utilizing steps one through three; from tissue; host or cells: rat brain
# ASSAY: Inhibition of farnesyltransferase (scintillation proximity assay, rat brain enzyme, biotin-K Ras B fragment substrate)
# Format: biochemical
# EXPERIMENTAL_SETUP: read-out: % inhibition of farnesyltransferase at 1 × 10^-7 M; 1 × 10^-7 M (Table 3)
Structures can show the parent of a compound that is named as a salt.
OBSERVATION_TYPE: inhibition at 0.1 µM (%)
Report only the number, with the unit % understood.

Would you please look over these solved cases?
compound="CSCC[C@H](NC(=O)c1ccc(/C=C/c2ccc(Oc3ccccc3Cl)cc2)cc1-c1ccccc1C)C(=O)O [Example 854]" value_reported=78
compound="CSCC[C@H](NC(=O)c1ccc(CCc2ccccc2Cc2ccccc2)cc1-c1ccccc1C)C(=O)O [Example 458, lithium salt]" value_reported=87
compound="CCCC(CCC)NOCc1ccc(C(=O)N[C@@H](CCSC)C(=O)O)c(-c2ccccc2C)c1 [Example 929]" value_reported=81
compound="CSCC[C@H](NC(=O)c1ccc(CCc2ccc(Oc3ccccc3)cc2)cc1-c1ccccc1C)C(=O)O [Example 462, lithium salt]" value_reported=91
compound="CSCC[C@H](NC(=O)c1ccc(CCc2ccc(Oc3ccccc3Cl)cc2)cc1-c1ccccc1C)C(=O)O [Example 855]" value_reported=92
compound="CSCC[C@H](NC(=O)c1ccc(CN2CCC[C@@H]2COCc2ccccc2)cc1-c1ccccc1C)C(=O)O [Example 993]" value_reported=90

Switching to the query record.
Q: Reported inhibition at 0.1 µM, compound CSCC[C@H](NC(=O)c1ccc(/C=C/c2ccc(Oc3cccc([N+](=O)[O-])c3)cc2)cc1-c1ccccc1C)C(=O)O [Example 861] : ____
Result: 65

Attribution: patent US6221865A
